Sourced from PubChem BioAssay AID1159580

Below, each of the compounds is paired with its reported normalized growth value.
experiment_summary: chemical genetic growth profiling, strain panel (AID 1159580);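 also: tested at 20 µM; growth read once vehicle control cultures reached saturation at 30 °C; 1 = growth at the plate median or of vehicle wells; lower values mean less growth of the strain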
condition_notes: S. cerevisiae deletion strains, growth OD, locus YNL271C, strain bni1, hits give low values
Hit rate of the full screen: of about 5,500 compounds, about 2,000 (36%) were called active. Roughly 18% stayed inconclusive and do not appear here. This is one part of the list.
Simply state the number, no unit and no words.

Study these solved cases before continuing.
C[C@H](N)[C@H](O)c1cccc(O)c1	0.997
CC(C)CCCC(C)C1CCC2C3CC[C@H]4CCCC[C@]4(C)C3CC[C@]12C (stereo not given in full)	0.993
COC(=O)c1c(C)cc(OC(=O)c2c(C)cc(O)c(C=O)c2O)c(C)c1O	1.03
CC(=O)O[C@H]1C[C@@H](OC(C)=O)C(C)(C)C2CC(=O)[C@]3(C)C(CC[C@@]4(C)[C@H](c5ccoc5)OC(=O)[C@H]5O[C@]543)[C@]21C (stereo not given in full)	1
CCC(=O)c1ccc2c(c1)N(CC(C)N(C)C)c1ccccc1S2 (stereo not given)	1.01

Record CC(CN1c2ccccc2Sc2cccnc21)N(C)C (stereo not given) . Reported normalized growth: 1.01

Record `CNCCCN1c2ccccc2CCc2ccccc21` . Reported normalized growth: 0.998

Record `Cc1cccc(Nc2ccncc2S(=O)(=O)NC(=O)NC(C)C)c1` . Reported normalized growth: 1.02

Record `COC(=O)c1c(C)cc(OC(=O)c2c(C)c(Cl)c(O)c(C=O)c2O)c(C)c1O` . Reported normalized growth: 0.996

Record `C[C@H](N)[C@H](O)c1ccccc1` . Reported normalized growth: 0.998

---

experiment_summary: chemical genetic growth profiling, strain panel (AID 1159580);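 also: tested at 20 µM; growth read once vehicle control cultures reached saturation at 30 °C; 1 = growth at the plate median or of vehicle wells; lower values mean less growth of the strain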
condition_notes: S. cerevisiae deletion strains, growth OD, locus YDL074C, strain BRE1, hits give low values
In all, about 5,500 compounds went through this assay and about 2,000 (36%) were called active. Roughly 18% stayed inconclusive and do not appear here. Some of the results follow.
Define the label as label 1 when normalized growth is strictly less than 1 and as label 0 in all remaining cases.

Data request: Is the reported normalized growth for `O=c1cc(-c2cc(O)c(O)c(O)c2)oc2cc(O)cc(O)c12` strictly below 1?
Data returned: label 1

Data request: Is the reported normalized growth for `N[C@@H](Cc1cc(I)c(Oc2ccc(O)c(I)c2)c(I)c1)C(=O)O` strictly below 1?
Data returned: label 0

Data request: Is the reported normalized growth for `O=c1cc(-c2ccccc2)oc2cc(O)cc(O)c12` strictly below 1?
Data returned: label 1

---

experiment_summary: chemical genetic growth profiling, strain panel (AID 1159580);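 also: tested at 20 µM; growth read once vehicle control cultures reached saturation at 30 °C; 1 = growth at the plate median or of vehicle wells; lower values mean less growth of the strain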
condition_notes: S. cerevisiae deletion strains, growth OD, locus YBR279W, strain paf1, hits give low values
The campaign covered roughly 5,500 compounds. About 2,000 (36%) were called active. Another 18% or so got no clear call; they are omitted. The list shows a part of the results.
property_name: normalized growth
Simply state the number, no unit and no words.

Study these solved cases before continuing.
CCCC(CCC)C(=O)O	1.02
C=C1C2CC[C@@]3(C)[C@H](c4ccoc4)OC(=O)C[C@]13O[C@H]1CC(O)C(C)(C)C(CC(=O)OC)[C@@]21C (stereo not given in full)	0.978

Record Cc1ncc([N+](=O)[O-])n1CC(C)O (stereo not given) . Reported normalized growth: 0.995

Record C=C1C2CCC3(C)C(c4ccoc4)OC(=O)CC13OC1CC(OC(C)=O)C(C)(C)C(CC(=O)OC)C12C (stereo not given) . Reported normalized growth: 1.01

Record `Nc1cc(C(Cl)=C(Cl)Cl)c(S(N)(=O)=O)cc1S(N)(=O)=O` . Reported normalized growth: 1.01
